TARGET: T1, rat amylin receptor (rat calcitonin receptor + rat RAMP 3) (rat, UniProt P32214 25-516; Q9JJ73 23-147)
T1 construct: whole, on cells; membranes of transiently transfected BHK tk'ts 13 cells (Assay VI); also called rAmylin-R; rat amylin 3(a) receptor
T1 sequence (looked up) 1: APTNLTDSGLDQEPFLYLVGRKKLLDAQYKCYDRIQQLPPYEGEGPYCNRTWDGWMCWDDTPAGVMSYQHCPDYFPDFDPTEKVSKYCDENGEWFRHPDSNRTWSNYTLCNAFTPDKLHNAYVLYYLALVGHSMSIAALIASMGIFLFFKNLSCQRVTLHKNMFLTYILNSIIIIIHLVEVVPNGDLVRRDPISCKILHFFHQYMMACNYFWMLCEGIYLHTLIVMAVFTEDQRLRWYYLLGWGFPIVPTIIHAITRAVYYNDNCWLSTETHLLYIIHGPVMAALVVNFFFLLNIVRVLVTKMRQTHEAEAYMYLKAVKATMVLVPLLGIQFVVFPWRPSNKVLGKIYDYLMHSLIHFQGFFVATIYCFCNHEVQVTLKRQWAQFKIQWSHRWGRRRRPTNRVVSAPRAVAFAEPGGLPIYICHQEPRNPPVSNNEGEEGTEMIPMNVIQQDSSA
T1 sequence (looked up) 2: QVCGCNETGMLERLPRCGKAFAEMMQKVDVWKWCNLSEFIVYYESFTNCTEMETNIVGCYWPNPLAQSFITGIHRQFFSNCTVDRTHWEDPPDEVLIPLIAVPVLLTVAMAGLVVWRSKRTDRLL
TEST SUMMARY: SPA competition with 125I-rat amylin, membranes of BHK cells with rat calcitonin receptor + rat RAMP3 (Assay VI)
Numbered stars: 1 amine (or outer) side, 2 acyl side, 3 side chain; on linkers, the order of the positions; unused ones are H or OH. Bridge positions count the residues as written; N and C are the ends. Side chains are listed from the residue outwards. Ends that are not written are not given here. * marks the point of attachment. C20 diacid = O=C(O)CCCCCCCCCCCCCCCCCCC(=O)*; γGlu = O=C(O)[C@H](CCC(=O)[*:2])N[*:1]
ASSAY METRIC: IC50 (nM)
Answer in nM, number only, no unit symbol.

Use the examples below as a reference point.
binder="K([γGlu-γGlu-C20 diacid])CNTATCATQRLADFLRHSSPNFGAIPSSTNVGSDTY-NH2 (disulfide 2-7 (inferred), analogue of human amylin; also called compound 2)" meas_value=0.295
binder="{C20 diacid-γGlu}-KCNTATCATQRLAEFLRHSSPNFGAIPSSTNVGKNTY-NH2 (disulfide 2-7 (inferred), analogue of human amylin; also called compound 36)" meas_value=1.86

In the following, a different binder is considered.
Looking for the measured IC50 of {C20 diacid-γGlu}-GRCNTATCATQRLANFLRHSSPNFGAIPSSTNVGSHTY-NH2 (disulfide 3-8 (inferred), analogue of human amylin extended by Gly at the N-terminus; also called compound 47) , can you help?
0.203
